Tested on: MS2 coat protein
assayRemarks: apparent Kd, MS2 coat protein; higher = weaker binding; RNA-MaP array; FMN 200 µM where present
reportedConditions: ligand present: flavin mononucleotide; designed as: OFF switch for flavin mononucleotide
# label = Met if apparent Kd >= 30 nM else Not met

# sequenceRecord, group
data = [
    ("CCCUCACAUGAGGAUCACCCAUGUUAGGAUAUCUACCUGGAGCUUUGAUUAGCCCAACGGAGAAGGAACGUGCA", "Not met"),
    ("GCCUCAUAGUAGAAGGGACUUAGGCAGUUAAGCAUCAUGUCCAAUUAACAUGAGGAUCACCCAUGUCAGGAUAUACUAAGAGGC", "Not met"),
    ("GCACGGAGUGUAGGAUAUUAGUGCGAUUAGCACUGAGAAGGACAUGAGGAUCACCCAUGUUCCUCAAUAACAUACCUUCCGUGC", "Not met"),
    ("CCUCAGUAAGGAUAUCAGCUUAUAGAGUUGGUAAUGAGAGCUGAGAAGGUACAUGAGGAUCACCCAUGUUAGUU", "Met"),
    ("ACUGGUCGAGGAUAUACGUGACGUGCUUCGGCACGAGGUCUACAUGAGGAUCACCCAUGUAGAAGGCGACCAGU", "Met"),
    ("AAUUCGUCAGGAUAUGCAUGUAAUUGUUACAUUUCGCCGUUGCAGAAGGGACAUGAGGAUCACCCAUGUAAGUC", "Met"),
]

---

Tested on: MS2 coat protein
assayRemarks: apparent Kd, MS2 coat protein; higher = weaker binding; RNA-MaP array
reportedConditions: designed as: ON switch for flavin mononucleotide; no ligand

# sequenceRecord, testedTarget, unitText, apparent Kd
rows = [
    ("AAUCAUAAUAAAGGAUAUACAACACAACAGGUGGUAGAAGGAUAUGGAGAUGGAACACACAUGAGGAUCACCCAUGUAAAUAGC", "MS2 coat protein", "nM", 13),
    ("UUGAGACAACACCCAACAUGAGGAUCACCCAUGUCACCGAGAGAGGAUAUGCACGAGUAGGUCCAGCAGAAGGCUCUAUGUCAA", "MS2 coat protein", "nM", 115),
    ("CACGCCAGAUCUCAGGAUAUCCCACAUCAAACAUGAGGAUCACCCAUGUGACAUAUAUAGAACAUGGAGAAGGGAGCACAUGCGGC", "MS2 coat protein", "nM", 209),
    ("AGGAACGUAGAGAAGGGAUCAAUUCGGUACAUGAGGAUCACCCAUGUGAUGGCCAAACUUCGAAAUCAGGAUAUCUCAUAAUAC", "MS2 coat protein", "nM", 18.4),
    ("CAAGCAUGAGAGAAGGUCCCAUCUAAACAUGAGGAUCACCCAUGUGAUACGGUGCUAUUGUGAAGGAAGGAUAUCUCAGUUAAU", "MS2 coat protein", "nM", 61.7),
    ("UAGGUACAUGAGGAUCACCCAUGUCCUAUUACUACAGGAUAUAGCGUGCCUAGAUGGGUGCUAGAAGGGUAGAUCU", "MS2 coat protein", "nM", 20.7),
    ("AUGCUUAAAAUGCUCAAACAUGAGGAUCACCCAUGUGAGGUCAAGGAUAUUAUUUAACUUGUUUAUAAGAAGGUGACCGAAUGA", "MS2 coat protein", "nM", 61.1),
    ("GACAUGAGGAUCACCCAUGUUUCGGUUACAUUGUAAUCAUGAUAGGAUAUCUCUGCUGUGGUGAGAGAGAAGGAUCGUCUGCUU", "MS2 coat protein", "nM", 13),
    ("UGUAUAGCCACUCAGGAUAUAGUUCAUCACACAUGAGGAUCACCCAUGUUACCAAUAUCAUCUGACUAGAAGGGAGAGACUUGCGU", "MS2 coat protein", "nM", 13.4),
    ("UGCCCUACAUGAGGAUCACCCAUGUACAUAACAUGAGUGCGCAGAAGGUAUGCGUUGAAGAGCCAUAAGGAUAUGCAAACCGUC", "MS2 coat protein", "nM", 114),
    ("ACUCGAUUACACAACCCGACAUGAGGAUCACCCAUGUAUCCGAGAAGGGCUAAUAUAUUCAGGAAGCAGGAUAUCGAAUCAAUA", "MS2 coat protein", "nM", 87.5),
    ("CUAACCACAAUAGGAUAUCGGGCUCGUUUCAUUGCUGCAAAACAUGAGGAUCACCCAUGUCCGUCCGAGAAGGAUUGUAAGAAU", "MS2 coat protein", "nM", 92.1),
    ("UGUUGCAGCCACAUGAGGAUCACCCAUGUGCUCAGGAUCGUUGAGGAUAUCGAGGUAGGGUCAGCCGAGAAGGCAAGGGUCGCG", "MS2 coat protein", "nM", 10.5),
    ("AGUCAAGAGUAGAAGGGUGGAAAUUCGGUCGACACAGGAUAUACUUCAGGAGCCAGAAGACAAUAACAUGAGGAUCACCCAUGU", "MS2 coat protein", "nM", 14.1),
    ("GGUCCGACAACAGGAUAUGUCAUACGCUAAUGAACAGAAGGGUUACAUGAGGAUCACCCAUGUGCUUACACAUGCUCCGGAGCA", "MS2 coat protein", "nM", 10.8),
    ("CCUGUAGACCCGACAUGAGGAUCACCCAUGUGUAGUUAUGGUAGAAGGUCGUACUGAACACACUCGAAGGAUAUACCCUUAUAC", "MS2 coat protein", "nM", 13.9),
    ("ACAGUAAAUGUGUAGGAUAUGAACUAAACCACAUGAGGAUCACCCAUGUAACGAUUGGAUGGCCUUCAGAAGGACAGGGUUAUUGC", "MS2 coat protein", "nM", 304),
    ("UACUUCACGAUACAGGAUAUACGUAAGUUCACAUGAGGAUCACCCAUGUUAGCACACCAACUCAUGUAGAAGGGUAUCCCUAUAUA", "MS2 coat protein", "nM", 30.4),
]
